test system: MS2 coat protein; experiment: apparent KD of MS2 coat protein, switch OFF state (with FMN for OFF switches, without FMN for ON switches); designed switch direction (-1 OFF switch, 1 ON switch): -1; higher = weaker reporter binding; conditions: FMN input: 0 or 200 uM; Eterna round: R93 (includes R88 designs)
assayEndpoint: apparent KD of MS2 coat protein (nM)

chain | targetSystem | measured
AAGGGACAUGAGGAUCACCCAUGUGAGGAUAUGCUAUGGAAAUAAAAAAUAAAACAUAGCAGAAGGCAUAAAAA [Mat - Exclusion 1 - Eli mod - D38] | MS2 coat protein | 60.5
AGAAACGUAGGAUAUACAUGAGGAUCACCCAUGUAAAGAAAGAAGGGAGAAAGAAGAAGUAGAAGGACGAAGAA [JR_Exc003_Sub003] | MS2 coat protein | 59.9
AAAAAACAUGAGGAUCACCCAUGUGAGGAUAUGCGAAAAAAAAAAUAAAAAAAAAAAAGCAGAAGGCACAAAAA [LROPPY Exclusion 1 - v05_deltaG=1.64] | MS2 coat protein | 58.5

###

This section presents sequences with their documented apparent KD of MS2 coat protein values.
test system: MS2 coat protein; assay: apparent KD of MS2 coat protein; designed switch direction (-1 OFF switch, 1 ON switch): -1; higher = weaker reporter binding; conditions: input ligand: none

chain | apparent KD of MS2 coat protein [nM]
GUCGUGCGGCAGUGCUGUACGAGUACAUGAGGAUCACCCAUGUAGGAUAUGGUUCGUUUUGCGUGCUAGAAGGGCGUGCGUUUU [Excl-NG3-LRO18] (Eterna round: R96, puzzle: Exclusion NG 3) | 24.8
GAUUAGCAAGUGAGAUCCCACAUGAGGAUCACCCAUGUGCUCGUCUUAUAAGGUACUGUGACGAAAGUCACGGUACC [Mat - Sensor, turn-off var - Eli Mod - D6] (Eterna round: R97, puzzle: Sensor, turn-off variant 1) | 226
GGUCAGCUAGGAUAUACAUGAGGAUCACCCAUGUACUGACCCAUGCGGGAAUCCGCGUGUAGAAGGAGCAAAAG [jl-ex3-4.60 ViennaUCT mod] (Eterna round: R97, puzzle: Exclusion 3) | 32.5
AAUAGUCAAGUUAGGAUAUUGCACCAGUGAUGGACCAAGAAGGAACAUGAGGAUCACCCAUGUGAACUCACGAC [Eternabot (Original) Solution 3] (Eterna round: R97, puzzle: Brourd's mod of Exclusion 4) | 40.8
GCAGCAUAGUCCAAAUAGGACAUACAUGAGGAUCACCCAUGUCAGGAUAUGGUCUGGAUUACAGGCCAGAAGGGACAAAGCUGC [Eli exng3 - 001] (Eterna round: R96, puzzle: Exclusion NG 3) | 27.9
ACACUUGAACAUGAGGAUCACCCAUGUGUUUUUCUGGUUCGGCAGGAUAUCGUCUAACGCCAGGGCGAGAAGGGCCAAUAAAAG [Inlale] (Eterna round: R96, puzzle: Exclusion NG 3) | 37
GUACUGAAGCAUAGCUUUAGUCGUACAUGAGGAUCACCCAUGUAGGAUAUGGUAGGCAUAGCUUACUAGAAGGAUAGAGUGAUC [Mat - Exclusion NG 3 - Mod of JL - D72] (Eterna round: R96, puzzle: Exclusion NG 3) | 137
UAUUAGCUUGCGAGAUCCGACAUGAGGAUCACCCAUGUGCUCGUCUUAUAUGGGAGGGAGGGAAAACCCUCCCUCCC [mod-Eli] (Eterna round: R97, puzzle: Sensor, turn-off variant 1) | 25.4
UCACGGGACUGAGGAUAUACAUGAACCAUGGUUGUAGAAGGCAGAAGGUUGGAUCAUACACUAAACAUGAGGAUCACCCAUGUU [JR_ExcNG1_Sub028] (Eterna round: R96, puzzle: Exclusion NG 1) | 21.8
GAAUAGGCAGGAUAUACAUGAGGAUCACCCAUGUGCCGGCGAAAGGUACGUUCGAAAGGUAGAAGGGCCUAAAC [ChP 13.04.2015 #7] (Eterna round: R96, puzzle: Exclusion 3) | 41.8
ACCCGCACAAGCACCAGAGACAUGAGGAUCACCCAUGUAUAGUCGCACUAGGGUCUCUCUAGUCUAGCCGUUCGUCA [Eternabot (Original) Solution 44] (Eterna round: R97, puzzle: Sensor, turn-off variant 1) | 213
CCCGUCGAUGUAGGAUAUGCCCGGGUCUCCCGGGCAGAAGGACAUGAGGAUCACCCAUGUUCGUGAGGAUCACCCAUGAAUGGG [Double but mutated MS2] (Eterna round: R96, puzzle: Exclusion NG 1) | 19.4

###

system: MS2 coat protein; test: apparent KD of MS2 coat protein; designed switch direction (-1 OFF switch, 1 ON switch): -1; higher = weaker reporter binding; conditions: Eterna round: R95; input ligand: none
# maps each entry to its apparent KD of MS2 coat protein
assayEndpoint: apparent KD of MS2 coat protein (µM)

chain | measured
AAGAAACAUGAGGAUCACCCAUGUGAGGAUAUGAAAAAGAAAAGAAAAGAAAGAAGCUUCAGAAGGCACAAAGG [salish99-ex1_r3_030] (puzzle: Exclusion 1) | 0.0394
AUAAAUAACGUUAGGAUAUAUUUUGUGACAUCAGGAUAGAAGGAACAUGAGGAUCACCCAUGUGAUUCUGUGAA [Maenin] (puzzle: Brourd's mod of Exclusion 4) | 0.0403
AGAGUGUGAGGAUAUAUGGUGAAGGUGAAGAGAGAGGAGGAGUAGAAGGUACAUGAGGAUCACCCAUGUUUGGA [JR_Exclu4_Sub075] (puzzle: Exclusion 4) | 0.0408

###

tested on: MS2 coat protein; experiment: apparent KD of MS2 coat protein; designed switch direction (-1 OFF switch, 1 ON switch): -1; higher = weaker reporter binding; conditions: input ligand: FMN 200 uM
assayEndpoint: apparent KD of MS2 coat protein (µM)

chain | measured
GAACUGAAGCUUUGCUUUAGUCGUACAUGAGGAUCACCCAUGUAGGAUAUGGUAGGCAAAGCUUACUAGAAGGACAGAGUGAUC [Mat - Exclusion NG 3 - Mod of JL - D69] (Eterna round: R96, puzzle: Exclusion NG 3) | 0.0991
AAAACAAAAGGAUAUACAUGAGGAUCACCCAUGUGGCGAUAAAUCGCCGCUAAACCAUGUAGAAGGUUUGCGAA [EX3 A.2] (Eterna round: R97, puzzle: Exclusion 3) | 0.102
CCUUCUCCACAGGAUAUGCUCAUCUAAUGAUGAGCAGAAGGGUGGACAUGAGGAUCACCCAUGUUUAUCAAUGG [Omei Ex6 D2] (Eterna round: R97, puzzle: Exclusion 6) | 0.589
UUUUUCUCAGGAUAUACAUGAGGAUCACCCAUGUAUAUUAAGAAUAAUACAUGGGAAUGUAGAAGGGAGCUCAU [Omei Ex3 Pseudoloop 10] (Eterna round: R97, puzzle: Exclusion 3) | 0.101
AAUUAGUGUGUGAGGAUAUUGGUGGAAUGACUUAUUAAGAAGGCACAUGAGGAUCACCCAUGUGGGAAGUCACG [JR_BMEx4_Sub014] (Eterna round: R97, puzzle: Brourd's mod of Exclusion 4) | 0.0101
AUGGGUCCUCACGGAGCUACAUGAGGAUCACCCAUGUGGAUUGAGGAUAUCGACUGCCGACGGCUCGAGAAGGCAGUUUACUGU [Ex NG3 #95] (Eterna round: R96, puzzle: Exclusion NG 3) | 0.0186
UUUAUGUAAGGAUAUAUGGGUUUAAAUGAAAAUUUGGGCCCAUAGAAGGUACAUGAGGAUCACCCAUGUAGUGG [-24.4, -24.3 kcal, 32% A] (Eterna round: R97, puzzle: Exclusion 4) | 0.474

###

tested on: MS2 coat protein; test: apparent KD of MS2 coat protein; higher = weaker reporter binding; details: Eterna round: R107; input ligand: theophylline 20 uM
Entries and their apparent KD of MS2 coat protein values follow.

chain | targetSystem | apparent KD of MS2 coat protein / µM
CCCAAUUUCCGAGAUAUGGGUCCAACUAAACGAGGACCGGUACGGCCGCCACUCGACUACAAACAUGAGGAUCACCCAUGUAAAG [theeternabot_exclusion_MS2_Trp_A_40] | MS2 coat protein | 0.02
GACAUGAGGAUCACCCAUGUUGACUAUGAAGGAGCGUCGGAAAUGACAGGUAGGUCGCAUAGUCGACCUUGUAUUUUGUGUGUUU [EAA #9] | MS2 coat protein | 0.0174
GGCCGGUGCGCUUUGAAGCGACGGCGUGAUACCAGAUGUAAGAGCGUCCCUUGGCAGCACGUUUACAUGAGGAUCACCCAUGUCU [Zaveusxe] | MS2 coat protein | 0.256

###

Entries and their apparent KD of MS2 coat protein
tested on: MS2 coat protein; assay: apparent KD of MS2 coat protein; higher = weaker reporter binding; conditions: Eterna round: R107; input ligand: arginine 13.2 mM
assayEndpoint: apparent KD of MS2 coat protein (nM)

chain | targetSystem | assayEndpoint | unitsOfMeasure | measured
ACAUGAGGAUCACCCAUGUGGCGACUUGAUACCAGACCCGCACUAGUCCCUUGGCAGCAACUACGUGUGGGACACCCAUGUGAAG [aszkullin] | MS2 coat protein | apparent KD of MS2 coat protein | nM | 17.5
GCACCAGGUACGGAUACCAGCUGCCAGCGUUACAUGAGGAUCACCCAUGUGAUCUGAUAUAGCCCUUGGCAGCUGUACCUGGUGC [SSThB NP+V+V2 #3 +-Same Structure] | MS2 coat protein | apparent KD of MS2 coat protein | nM | 43.4
AUACAUGAGGAUCACCCAUGUUAUAGUGAAGGAGCGACAUUUAUGUCAGGUAGGUCGCACUGUUGUUUAAUGAUUCUUGGAUCUU [#20 Exclusion - Arginine A] | MS2 coat protein | apparent KD of MS2 coat protein | nM | 16
UUGUUGUUUGGAAGGAGCGUGUAUGAUUAAGAACAUGAGGAUCACCCAUGUUGUAGGGUAGCACAGGUAGGUCGCCGGGUGGUGG [11.V] | MS2 coat protein | apparent KD of MS2 coat protein | nM | 34.8
AAGGUGAUCCCAGAUACCAGCUCAACAUGAGGAUCACCCAUGUACGGGACGAAAGUCCCGGGCCCUUGGCAGCUGGGUUGCCAAG [SSTheo B #19] | MS2 coat protein | apparent KD of MS2 coat protein | nM | 42.2
AGGUAUGAUCCGGAUACCAGCGAACAUGAGGAUCACCCAUGUGACCUGAGAUAGGCUCUACGCCCUUGGCAGCCGCGAUCGCAGA [Same State Theophylline B GF11] | MS2 coat protein | apparent KD of MS2 coat protein | nM | 10.1
UAUAUAUAUAGUGAUACCAGCAGAGAAAACGUUUAUCCUAACAUGAGGAUCACCCAUGUAUGCCCUUGGCAGCGUUAUAUAUAUA [8.E] | MS2 coat protein | apparent KD of MS2 coat protein | nM | 21.2
CCCUCCAGAACGGCCGCCACUAAAGGGUUGUGUGCGACUCCGGAACAUGAGGAUCACCCAUGUCUUAGGACCGGGUUCCCUUCUA [theeternabot_sameState_MS2_Trp_B_30] | MS2 coat protein | apparent KD of MS2 coat protein | nM | 58.9
AUUAAUAAUAUGUAGACGGCGGAGAAGAGACGAGGACCGGUACGGCCGCCACUCGUGUUAGUUAACAUGAGGAUCACCCAUGUUA [#09 Tryptophan A Same State] | MS2 coat protein | apparent KD of MS2 coat protein | nM | 9.55
CUCGAGUUAUGAGAUACCAGACUAUAGUUUACAUGAGGAUCACCCAUGUUAUGGGUGGUAGUCCCUUGGCAGCUCAUAUGUUUAA [#06 Exclusion-TheophyllineB] | MS2 coat protein | apparent KD of MS2 coat protein | nM | 210
UGCGUACAUGAGGAUCACCCAUGUACUGAAGGAGCGGGAGGCAUCUCAGGUAGGUCGCAGACAUGAGGAUCACCCAUGUAGUGGU [Exclusion Arginine A GF 18] | MS2 coat protein | apparent KD of MS2 coat protein | nM | 16.1
UUAAUCAUGGAUGAAAACAUUUAUGCAGAAGGAGCGUGAUAAAACACAGGUAGGUCGCUGAAGGGAACAUGAGGAUCACCCAUGU [AstrosSSArgA#17] | MS2 coat protein | apparent KD of MS2 coat protein | nM | 35.9
